Would you mind telling me the reported self-cleavage of each entry?
B1: Hairpin Ribozyme (parent)
chain: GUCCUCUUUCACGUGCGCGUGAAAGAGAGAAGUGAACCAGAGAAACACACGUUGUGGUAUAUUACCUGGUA

variants of: B1; test: self-cleavage, relative activity (ratio to wild type); higher = more cleavage; co-transcriptional
Answers are plain numbers.

Before answering, review these 4 worked examples.
mutantId: C46G C66U
self-cleavage: 0.215
//
mutantId: U55A G57C
self-cleavage: 0.146
//
mutantId: G32A G54U
self-cleavage: 0.136
//
mutantId: C65U C66U
self-cleavage: 0.185

Batch of 2 variants: report self-cleavage for each.
1. G34A C38G
2. C4A C48U

RESULT:
1. 0.195
2. 0.15
